Hello, the source for this data is patent US6696431B2, in case you need it.

SYSTEM UNDER TEST: porcine intestinal vitamin D receptor (Sus scrofa, UniProt A3RGC1)
Construct: from tissue; host or cells: porcine intestine
Sequence (A3RGC1 whole entry): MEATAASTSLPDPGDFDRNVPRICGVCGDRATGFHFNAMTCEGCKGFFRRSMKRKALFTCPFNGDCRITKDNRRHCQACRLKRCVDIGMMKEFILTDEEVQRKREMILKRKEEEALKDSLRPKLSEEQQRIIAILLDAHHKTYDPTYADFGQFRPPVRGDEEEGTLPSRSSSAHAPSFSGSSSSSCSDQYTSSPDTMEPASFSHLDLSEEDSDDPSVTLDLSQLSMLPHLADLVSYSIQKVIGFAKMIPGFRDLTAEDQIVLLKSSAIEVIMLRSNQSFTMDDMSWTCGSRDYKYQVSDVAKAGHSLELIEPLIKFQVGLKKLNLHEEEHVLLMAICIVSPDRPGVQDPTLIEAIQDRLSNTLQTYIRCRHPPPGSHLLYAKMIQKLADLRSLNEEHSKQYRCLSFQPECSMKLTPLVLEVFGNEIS
PROTOCOL: Competitive binding to the porcine intestinal vitamin D receptor
CONDITION CONTEXT: ratio of analog ED50 to ED50 for 1α,25-(OH)2D3
PROPERTY: VDR Binding ratio

C=C1[C@H](O)CC(=C/C=C2\CCC[C@@]3(C)C2CCC3[C@@H](C)CCCC(O)(CC)CC)C[C@H]1O (stereo partly shown)    4.9
C=C1[C@H](O)CC(=C/C=C2\CCC[C@@]3(C)C2CCC3[C@@H](C)CCCC2(O)CCCC2)C[C@H]1O (stereo partly shown)    3.1

(P) C=C1[C@H](O)CC(=C/C=C2\CCC[C@@]3(C)C2CCC3[C@@H](C)CCCC2(OC)CCCC2)C[C@H]1O (stereo partly shown)
(Q) C=C1[C@H](O)CC(=C/C=C2\CCC[C@@]3(C)C2CCC3[C@@H](C)CCC=C2CCCC2)C[C@H]1O (stereo partly shown)
-- ask Of P and Q , which carries the smaller reported VDR Binding ratio figure? Give the chosen item's label as your response.
-- reply P
(P: 17, Q: 33)
